protocolDescription: Single oral dose PK
Type: in vivo
cond: Bama, minipig, plasma; single PO 0.3 g/kg, female
assayMetric: half-life (h)
Give your result in h as a bare value.

Query string: Return the recorded half-life value; entry: OC[C@@H](O)[C@@H](O)[C@@H](O)CO [ribitol, (2R,3s,4S)-Pentane-1,2,3,4,5-pentol]
Result string: 1.23

###

protocolDescription: 28-day repeat-dose oral toxicokinetics
Format: in vivo, Bama minipig
cond: female, Bama, minipig, plasma, po, 1 g/kg, 1.0 g/kg/dose BID (2.0 g/kg/day, NOAEL), Day 28, Female; read-out: Cmax
assayMetric: Cmax (µg/mL)
# unit: µg/mL | format: bare number

Query string: Query Cmax for OC[C@@H](O)[C@@H](O)[C@@H](O)CO [ribitol, (2R,3s,4S)-Pentane-1,2,3,4,5-pentol]
Result string: 281

###

protocolDescription: Plasma protein binding, rapid equilibrium dialysis
Type: in vitro ADME
cond: human plasma, 0.49 and 1.31 mM, range
assayMetric: fraction unbound

Query string: Recall and state the measured fraction unbound for OC[C@@H](O)[C@@H](O)[C@@H](O)CO .
Result string: 0.635 to 0.654

###

protocolDescription: Single oral dose PK
Type: in vivo, CD-1 mouse
cond: CD-1, mouse, plasma; single PO 0.3 g/kg, female
Procedure: The PK of ribitol was studied in male and female CD-1 mice following two oral doses at 0.3 and 1.0 g/kg (FIG. 10). Blood samples were collected serially up to 24 hours post dose.
assayMetric: AUC(0-inf) (ng·h/mL)
All answers are understood in ng·h/mL, so give the number only.

Query string: In one line, give reported AUC(0-inf) of the entry OC[C@@H](O)[C@@H](O)[C@@H](O)CO [ribitol, (2R,3s,4S)-Pentane-1,2,3,4,5-pentol] .
Result string: 55900

###

protocolDescription: 7-day repeat-dose oral toxicokinetics
Type: in vivo, Bama minipig
cond: male, Bama, minipig, plasma, po, 0.3 g/kg, 0.3 g/kg BID, Day 7, M
assayMetric: Tmax (min)
Use min as the unit, but write only the number.

Query string: Please report the measured Tmax for OC[C@@H](O)[C@@H](O)[C@@H](O)CO
Result string: 30

###

protocolDescription: 28-day repeat-dose oral toxicokinetics
Assay type: in vivo, CD-1 mouse
cond: male, CD-1, mouse, plasma, po, 1 g/kg, 1.0 g/kg/dose BID, Day 28, Male; read-out: AUC0-24
assayMetric: AUC(0-t)
Phrase the answer as number then unit, nothing more needed.

Query string: Look up and state reported AUC(0-t) for OC[C@@H](O)[C@@H](O)[C@@H](O)CO [ribitol, (2R,3s,4S)-Pentane-1,2,3,4,5-pentol]
Result string: 818 µg·h/mL

###

protocolDescription: PK comparison QD, BID, TID oral dosing
Assay type: in vivo
cond: female, CD-1, mouse, plasma, po, 0.3 g/kg, PO 0.3 g/kg/dose BID, last dose
assayMetric: AUC(0-inf) (ng·h/mL)
State the answer as a number, implicitly in ng·h/mL.

Query string: State its AUC(0-inf) for this molecule: OC[C@@H](O)[C@@H](O)[C@@H](O)CO
Result string: 48300

###

protocolDescription: in vivo
Parameters: species or system mouse
cond: female, CD-1, mouse, po, 3 g/kg/day, Steady-state AUC(0-24)
assayMetric: AUC(0-t) (µg·h/mL)
Please state the figure in µg·h/mL; there is no need to write the unit.

Query string: # return recorded AUC(0-t) for input OC[C@@H](O)[C@@H](O)[C@@H](O)CO
Result string: 839

###

protocolDescription: Metabolic stability in liver microsomes, cytosol, hepatocytes
Assay type: in vitro ADME
cond: CD-1, mouse, liver microsomes, Microsomes
assayMetric: CLint scaled at 10 μM

Query string: Please indicate CLint scaled at 10 μM recorded for OC[C@@H](O)[C@@H](O)[C@@H](O)CO
Result string: < 29.3 mL/min/kg

###

protocolDescription: Metabolic stability in liver microsomes, cytosol, hepatocytes
Type: in vitro ADME
cond: Sprague-Dawley, rat, liver microsomes, Microsomes
assayMetric: CLint scaled at 10 μM

Query string: Determine from records and report CLint scaled at 10 μM for OC[C@@H](O)[C@@H](O)[C@@H](O)CO [ribitol, (2R,3s,4S)-Pentane-1,2,3,4,5-pentol]
Result string: < 13.3 mL/min/kg

###

protocolDescription: 7-day repeat-dose oral toxicokinetics
Type: in vivo, CD-1 mouse
cond: male, CD-1, mouse, plasma, po, 1.5 g/kg, 1.5 g/kg/dose BID, Day 1, M
assayMetric: Cmax (µg/mL)
Just the number in µg/mL, nothing appended.

Query string: Specify measured Cmax for OC[C@@H](O)[C@@H](O)[C@@H](O)CO .
Result string: 316

###

protocolDescription: 28-day repeat-dose oral toxicokinetics
Type: in vivo, Bama minipig
cond: female, Bama, minipig, plasma, po, 2 g/kg/day, 1.0 g/kg/dose BID (2.0 g/kg/day, NOAEL), Day 28, Female; read-out: AUC0-24
assayMetric: AUC(0-t)

Query string: Recall and state the measured AUC(0-t) for OC[C@@H](O)[C@@H](O)[C@@H](O)CO [ribitol, (2R,3s,4S)-Pentane-1,2,3,4,5-pentol] .
Result string: 1980 µg·h/mL

###

protocolDescription: Single oral dose PK
Type: in vivo, CD-1 mouse
cond: CD-1, mouse, plasma; single PO 0.3 g/kg, male
assayMetric: AUC(0-inf) (µg·h/mL)
// units = µg·h/mL; emit number, no label

Query string: Answer with the recorded AUC(0-inf) for the compound listed here: OC[C@@H](O)[C@@H](O)[C@@H](O)CO [ribitol, (2R,3s,4S)-Pentane-1,2,3,4,5-pentol]
Result string: 41.6

###

protocolDescription: 28-day repeat-dose oral toxicokinetics
Type: in vivo, CD-1 mouse
cond: both sexes, CD-1, mouse, plasma, po, 1.5 g/kg, 1.5 g/kg/dose BID, Day 1, Mean of sexes; read-out: AUC0-24
assayMetric: AUC(0-t) (µg·h/mL)
Just the number please, in µg·h/mL, no unit attached.

Query string: Specify measured AUC(0-t) for OC[C@@H](O)[C@@H](O)[C@@H](O)CO .
Result string: 1020

###

protocolDescription: 7-day repeat-dose oral toxicokinetics
Type: in vivo, CD-1 mouse
cond: male, CD-1, mouse, plasma, po, 1 g/kg, 1.0 g/kg/dose BID, Day 7, M
assayMetric: Cmax
Record the result as a number with its unit.

Query string: Answer with the recorded Cmax of OC[C@@H](O)[C@@H](O)[C@@H](O)CO [ribitol, (2R,3s,4S)-Pentane-1,2,3,4,5-pentol] only.
Result string: 237 µg/mL

###

protocolDescription: 28-day repeat-dose oral toxicokinetics
Type: in vivo, Bama minipig
cond: female, Bama, minipig, plasma, po, 0.3 g/kg, 0.3 g/kg/dose BID, Day 1, Female; mean ± SD; read-out: AUC0-24
assayMetric: AUC(0-t) (µg·h/mL)
Dear colleague, please return just the value in µg·h/mL, with no unit written.

Query string: Give the reported AUC(0-t) for this compound. OC[C@@H](O)[C@@H](O)[C@@H](O)CO [ribitol, (2R,3s,4S)-Pentane-1,2,3,4,5-pentol]
Result string: 605

###

testedTarget: hERG (Homo sapiens, UniProt Q12809)
Sequence (Q12809 whole entry): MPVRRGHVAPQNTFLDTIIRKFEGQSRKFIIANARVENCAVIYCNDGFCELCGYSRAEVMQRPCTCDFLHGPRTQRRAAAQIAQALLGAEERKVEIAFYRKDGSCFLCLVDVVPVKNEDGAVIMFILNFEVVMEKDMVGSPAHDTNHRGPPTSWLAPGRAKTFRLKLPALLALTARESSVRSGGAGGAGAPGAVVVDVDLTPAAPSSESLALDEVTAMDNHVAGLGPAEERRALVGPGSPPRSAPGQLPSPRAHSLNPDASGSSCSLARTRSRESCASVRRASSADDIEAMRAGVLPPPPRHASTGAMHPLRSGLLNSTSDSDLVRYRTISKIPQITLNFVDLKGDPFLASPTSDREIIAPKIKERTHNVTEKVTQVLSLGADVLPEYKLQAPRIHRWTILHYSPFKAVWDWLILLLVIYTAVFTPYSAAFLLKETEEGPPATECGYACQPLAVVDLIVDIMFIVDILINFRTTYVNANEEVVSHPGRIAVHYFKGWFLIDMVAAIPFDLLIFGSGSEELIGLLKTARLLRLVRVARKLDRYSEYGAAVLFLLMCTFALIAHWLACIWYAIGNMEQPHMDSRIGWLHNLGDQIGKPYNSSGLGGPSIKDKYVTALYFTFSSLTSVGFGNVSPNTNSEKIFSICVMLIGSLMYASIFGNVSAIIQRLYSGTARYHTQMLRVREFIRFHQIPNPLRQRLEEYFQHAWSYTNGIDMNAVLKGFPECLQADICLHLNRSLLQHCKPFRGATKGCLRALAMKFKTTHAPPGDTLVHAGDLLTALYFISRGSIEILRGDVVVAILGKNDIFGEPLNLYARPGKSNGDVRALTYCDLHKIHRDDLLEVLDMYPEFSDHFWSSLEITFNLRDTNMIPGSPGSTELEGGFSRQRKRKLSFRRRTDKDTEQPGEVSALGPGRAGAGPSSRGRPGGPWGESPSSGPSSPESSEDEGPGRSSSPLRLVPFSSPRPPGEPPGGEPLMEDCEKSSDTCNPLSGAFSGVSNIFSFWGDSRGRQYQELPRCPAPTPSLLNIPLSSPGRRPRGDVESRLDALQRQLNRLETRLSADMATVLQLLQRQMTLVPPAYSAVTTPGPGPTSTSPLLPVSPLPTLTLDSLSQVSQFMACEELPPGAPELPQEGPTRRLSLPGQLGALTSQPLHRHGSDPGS
protocolDescription: in vitro
assayMetric: inhibition at 0.03 mM (%)
Write it as a number; the unit % goes unstated.

Query string: Recall and state the measured inhibition at 0.03 mM for OC[C@@H](O)[C@@H](O)[C@@H](O)CO [ribitol, (2R,3s,4S)-Pentane-1,2,3,4,5-pentol] .
Result string: 3.09

###

protocolDescription: Single oral dose PK
Assay type: in vivo
cond: Bama, minipig, plasma; single PO 1.0 g/kg, female
assayMetric: half-life (h)
Supply the numeric figure in h, leaving out any unit text.

Query string: Quick one: give measured half-life for OC[C@@H](O)[C@@H](O)[C@@H](O)CO [ribitol, (2R,3s,4S)-Pentane-1,2,3,4,5-pentol]
Result string: 1.43

###

protocolDescription: 7-day repeat-dose oral toxicokinetics
Format: in vivo, CD-1 mouse
cond: female, CD-1, mouse, plasma, po, 0.5 g/kg, 0.5 g/kg/dose BID, Day 1, F
assayMetric: Tmax
Please make sure the unit comes right after the number.

Query string: State its Tmax for this compound: OC[C@@H](O)[C@@H](O)[C@@H](O)CO [ribitol, (2R,3s,4S)-Pentane-1,2,3,4,5-pentol]
Result string: 30 min

###

protocolDescription: 28-day repeat-dose oral toxicokinetics
Format: in vivo, CD-1 mouse
cond: female, CD-1, mouse, plasma, po, 1 g/kg, 1.0 g/kg/dose BID, Day 1, Female; read-out: AUC0-24
assayMetric: AUC(0-t) (µg·h/mL)
Report as a plain number; the unit µg·h/mL is understood.

Query string: Fill in reported AUC(0-t) for this entry: OC[C@@H](O)[C@@H](O)[C@@H](O)CO
Result string: 520

###

protocolDescription: 28-day repeat-dose oral toxicokinetics
Assay type: in vivo, CD-1 mouse
cond: both sexes, CD-1, mouse, plasma, oral, post first dose and post second dose, Day 1 or Day 28
assayMetric: Tmax (min)
Give the quantity in min, number only.

Query string: // Input: OC[C@@H](O)[C@@H](O)[C@@H](O)CO [ribitol, (2R,3s,4S)-Pentane-1,2,3,4,5-pentol] . Output its Tmax only.
Result string: 30
